- System: panel of hematologic and solid cancer lines
- METHOD: 6-day in vitro growth/death assay
- Assay type: cell-based, human
- CONDITIONS: Homo sapiens, HCC38, HCC38; read-out: gIC50
- Description: To further develop these molecules and to guide clinical strategy, it was necessary to understand sensitivity in preclinical models by assessing the anti-tumour activity of the PRMT5 inhibitors in various cancers. Cell lines were obtained from ATCC or DSMZ and were grown in recommended medium, which was most frequently RPMI-1640 containing 10% FBS. Cell line proliferation assays, Western blotting, qRT-PCR, and cell cycle analyses were performed as described previously[27],[28]. […]
MEASURED_ENDPOINT: IC50 (nM)
One number for each entry, in nM.

Find the recorded IC50 belonging to O=C(NC[C@H](O)CN1CCc2ccccc2C1)c1ccnc(NC2CCC2)c1 and report it.
127

====

- Test system: panel of hematologic and solid cancer lines
- METHOD: 6-day in vitro growth/death assay
- Type: cell-based, human
- CONDITIONS: Homo sapiens, PL-21, PL-21; read-out: gIC50
MEASURED_ENDPOINT: pIC50
Numbers only, as −log10 of the molar value.

Find the recorded pIC50 belonging to O=C(NC[C@H](O)CN1CCc2ccccc2C1)c1ccnc(NC2CCC2)c1 and report it.
6.48

====

- Tested on: panel of hematologic and solid cancer lines
- METHOD: 6-day in vitro growth/death assay
- Type: cell-based, human
- CONDITIONS: Homo sapiens, NCI-H292, NCI-H292; read-out: gIC50
MEASURED_ENDPOINT: IC50 (nM)
Numbers only, in nM.

Find the recorded IC50 belonging to O=C(NC[C@H](O)CN1CCc2ccccc2C1)c1ccnc(NC2CCC2)c1 and report it.
1340

====

- Test system: panel of hematologic and solid cancer lines
- METHOD: 6-day in vitro growth/death assay
- Type: cell-based, human
- CONDITIONS: Homo sapiens, RPMI-8226-DOX; read-out: gIC50
MEASURED_ENDPOINT: IC50 (µM)
Give bare numbers, in µM.

>>> df
                                   compound  endpoint_result
0  CC(=O)N1CCC(Nc2cc(C(=O)NC[C@H](O)CN3CCc4ccccc4C3)ncn2)CC1 [GSK3326595]             29.3

Proceeding to the next compound to report its IC50.
Find the recorded IC50 belonging to O=C(NC[C@H](O)CN1CCc2ccccc2C1)c1ccnc(NC2CCC2)c1 [GSK3203591] and report it.
0.204

====

- Tested on: panel of hematologic and solid cancer lines
- METHOD: 6-day in vitro growth/death assay
- Type: cell-based, human
- CONDITIONS: Homo sapiens, Hs766T; read-out: gIC50
MEASURED_ENDPOINT: pIC50
Answers are plain numbers, as −log10 of the molar value.

Find the recorded pIC50 belonging to O=C(NC[C@H](O)CN1CCc2ccccc2C1)c1ccnc(NC2CCC2)c1 and report it.
5.70

====

- System: panel of hematologic and solid cancer lines
- METHOD: 6-day in vitro growth/death assay
- Assay type: cell-based, human
- CONDITIONS: Homo sapiens, HuT78, HuT78; read-out: gIC50
MEASURED_ENDPOINT: IC50 (nM)
Answers are plain numbers, in nM.

Find the recorded IC50 belonging to O=C(NC[C@H](O)CN1CCc2ccccc2C1)c1ccnc(NC2CCC2)c1 and report it.
103
